From: PubChem BioAssay (NCI)

Tested on: MDA-MB-435 melanoma
Assay protocol: NCI-60 one-dose screen, 48 h
Protocol conditions: 10 µM unless noted
Procedure: Growth inhibition of the MDA-MB-435 human Melanoma tumor cell line is measured as a screen for anti-cancer activity. Cells are grown in 96 well plates and exposed to the test compound for 48 hours. Compounds are tested at a single concentration, which is 10^-5 M for most compounds. The reported endpoint is percent growth (GI% or GIPRCNT), where numbers from 0 - 100% represent growth inhibition, and numbers from -100% - 0 represent cell death. […]
This is part of a sample that, as a whole, favours compounds with a hit. Of some 83,000 tested, about 20% had one in any assay. Active and inactive are the calls of the source. The calls were made as follows: active = growth percent below 10; inactive = the rest.
Returns: one label drawn from True = active, False = inactive

Give the logged outcome of this assay for the following compound: O=S(=O)(NCCCNc1nccc(-c2c(-c3cccc(F)c3)nc3sccn23)n1)c1cccc(F)c1 False

Give the logged outcome of this assay for the following compound: CCN(CC)c1ccc(/C=N/NC(=O)CSc2nc3ccccc3c(=O)n2Cc2ccc(S(N)(=O)=O)cc2)c(O)c1 False

Give the logged outcome of this assay for the following compound: COc1ccc(CC(C)=C(c2ccc(OCCN3CCCCCC3)cc2)c2ccc(OCCN3CCCCCC3)cc2)cc1 True

Give the logged outcome of this assay for the following compound: C=C1C(=O)O[C@H]2[C@H]1CC/C(COC(=O)NCc1c[nH]c3ccc(Cl)cc13)=C\CC[C@@]1(C)O[C@@H]21 True

Give the logged outcome of this assay for the following compound: CCCCCCCCCCCCCCCC[N+]1(C)CCN(SN2CC[N+](C)(CCCCCCCCCCCCCCCC)CC2)CC1 False

Give the logged outcome of this assay for the following compound: N#Cc1c(-c2cccc([N+](=O)[O-])c2)nc(SCC(=O)c2ccc(Cl)cc2)[nH]c1=O False

Give the logged outcome of this assay for the following compound: COc1cc2oc(-c3cccc(C(=O)Nc4ccc(Br)cc4)c3)cc(=O)c2c(OC)c1OC False

Give the logged outcome of this assay for the following compound: COc1cccc(-c2nc3occn3c2-c2ccnc(NCCNS(=O)(=O)c3cccc4ccccc34)n2)c1 False

Give the logged outcome of this assay for the following compound: Cn1cc(-c2nc(-c3c[nH]c4c(Cl)nccc34)cs2)c2cc(Br)ccc21 False

Give the logged outcome of this assay for the following compound: C=C1C(=O)O[C@H]2[C@H]1CC/C(COC(=O)NCc1c[nH]c3ccc(Br)cc13)=C\CC[C@@]1(C)O[C@@H]21 True

Give the logged outcome of this assay for the following compound: N#CC1=C(/N=C/c2ccccc2)Oc2c(ccc3ccccc23)C1c1ccc([N+](=O)[O-])cc1 (stereo unspecified) False

Give the logged outcome of this assay for the following compound: C=CC(=O)N[C@@H](/C=C/C(=O)OCC)Cc1ccc(-c2cc(Cl)cc(Cl)c2)cc1 True

Give the logged outcome of this assay for the following compound: c1ccc(Cn2cnc3ccc(-c4nc(-c5ccc6c(c5)ncn6C5CCCCC5)cn5ccnc45)cc32)cc1 True

Give the logged outcome of this assay for the following compound: COc1cc(CC(=O)c2ccc(O)c(OC)c2)ccc1O False

Give the logged outcome of this assay for the following compound: O=S(=O)(NCCNc1nccc(-c2c(-c3cccc(O)c3)nc3occn23)n1)c1ccc(C(F)(F)F)cc1 False

Give the logged outcome of this assay for the following compound: COc1cc2c(=O)n(CCN)c3c4cc5c(cc4ccc3c2cc1OC)OCO5 True

* * *

Test system: MDA-MB-435 melanoma
Assay protocol: NCI-60 one-dose screen, 48 h
Protocol conditions: 10 µM unless noted
Method: Growth inhibition of the MDA-MB-435 human Melanoma tumor cell line is measured as a screen for anti-cancer activity. Cells are grown in 96 well plates and exposed to the test compound for 48 hours. Compounds are tested at a single concentration, which is 10^-5 M for most compounds. The reported endpoint is percent growth (GI% or GIPRCNT), where numbers from 0 - 100% represent growth inhibition, and numbers from -100% - 0 represent cell death. […]
Compounds without any hit were thinned out: in the full panel of roughly 83,000, 20% have a hit. Calls of active or inactive are those of the source. Rule for the calls: active = growth percent below 10; inactive = the rest.
Returns: one label drawn from active, inactive

Give the logged outcome of this assay for the following compound: CCCCCC(=O)Oc1ccc(/C(=C(\C)c2ccccc2)c2ccc(OCCN3CCCCC3)cc2)cc1 inactive

Give the logged outcome of this assay for the following compound: Cc1ccc(S(=O)(=O)Nn2c3c(cc(-c4nc5ccccc5s4)c2=O)CCCCCC3)cc1 inactive

Give the logged outcome of this assay for the following compound: O=C(/C(=C/c1ccc([N+](=O)[O-])cc1)SCc1ccc(F)cc1)c1ccc(F)cc1 inactive

Give the logged outcome of this assay for the following compound: CNCCn1c(=O)c2cc(OC)c(OC)cc2c2ccc3cc4c(cc3c21)OCO4 active

Give the logged outcome of this assay for the following compound: Cc1nn(-c2ccccc2)c(Cl)c1/C=N\N=c1/sc2ccccc2n1C inactive

Give the logged outcome of this assay for the following compound: Cc1nn(-c2ccccc2)c(Cl)c1/C=C/C(=O)c1ccc(F)cc1 inactive

Give the logged outcome of this assay for the following compound: NC(=NCc1ccccc1)C(N=Nc1ccccc1)C(=O)NCc1ccccc1 (stereo unspecified) inactive

Give the logged outcome of this assay for the following compound: COc1ccccc1NC(=O)C1CC(c2ccc(F)cc2)=NO1 (stereo unspecified) inactive

Give the logged outcome of this assay for the following compound: O=S(=O)(Nc1ccc(-n2cnc3cc(-c4ccc(O)cc4)ccc32)cc1)c1ccccc1 inactive

Give the logged outcome of this assay for the following compound: COc1cc(/C=C\c2cc(OC)c(OC)c(OC)c2)cc(NC(=O)/C=C/c2cc(OC)c(OC)c(OC)c2)c1OC active

Give the logged outcome of this assay for the following compound: O=C(/C=C(O)/C=C/c1ccc(SC(F)(F)F)cc1)/C=C/c1ccc(SC(F)(F)F)cc1 inactive

Give the logged outcome of this assay for the following compound: O=c1ccc(-c2nc(N3CCOCC3)c3ccccc3n2)c[nH]1 inactive

Give the logged outcome of this assay for the following compound: COc1cc(/C=N/NC(=O)c2cnn3c2NC(c2ccccc2)C3)ccc1Oc1ccccc1 (stereo unspecified) active

Give the logged outcome of this assay for the following compound: O=C1c2ccc3c4c(ccc(c24)C(=O)N1CCCNCc1ccccc1F)C(=O)N(CCCNCc1ccccc1F)C3=O active

Give the logged outcome of this assay for the following compound: C=CCN1C(=O)/C(=C/C(=O)OC)S/C1=N\NC(=O)c1cc2ccc1/C=C\c1ccc(cc1)/C=C\2 inactive

Give the logged outcome of this assay for the following compound: O=C(Nc1ccc(Cl)cc1)c1cc(NCc2cc(O)ccc2O)ccc1O inactive

Give the logged outcome of this assay for the following compound: COc1ccc(/C=C/c2nc(Nc3ccc(S(=O)(=O)Nc4cc(C)on4)cc3)c3ccccc3n2)cc1 inactive

Give the logged outcome of this assay for the following compound: CN(CCN(C)c1ccc(C(=N)N)cc1)c1ccc(C(=N)N)cc1 inactive

Give the logged outcome of this assay for the following compound: C=CCn1c(-c2ccc(-c3nc4ccc(C)cc4[nH]3)cc2)n[nH]c1=S inactive

Give the logged outcome of this assay for the following compound: COc1cc2oc(-c3cccc(C(=O)Nc4ccc5c(c4)OCO5)c3)cc(=O)c2c(O)c1OC inactive

Give the logged outcome of this assay for the following compound: COc1ccc(C(=O)c2nc3ccccc3n2CC(=O)c2ccc(F)cc2)cc1 active

* * *

Can you tell me growth for the items I'm about to list?
Test system: SR leukemia
Assay protocol: NCI-60 one-dose screen, 48 h (100 = growth as untreated, 0 = no growth, -100 = all killed)
Protocol conditions: 10 µM unless noted
Experimental: Growth inhibition of the SR human tumor cell line is measured as a screen for anti-cancer activity. Cells are grown in 96 well plates and exposed to the test compound for 48 hours. Compounds are tested at a single concentration, which is 10^-5 M for most compounds. The reported endpoint is percent growth (GI% or GIPRCNT), where numbers from 0 - 100% represent growth inhibition, and numbers from -100% - 0 represent cell death. For example, a value of 40 represents 60% growth inhibition. […]
About 83,000 compounds went through this panel and 20% of them were active in at least one assay; those are over-represented in the sample as a whole.
Write the value in % as a bare number.

So what's the measured growth for this one? C=C1C(=O)O[C@H]2[C@H]1CC/C(COC(=O)NCc1c[nH]c3ccc(F)cc13)=C\CC[C@@]1(C)O[C@@H]21 13

So what's the measured growth for this one? COc1cc(/C=N/NC(=O)c2cnn3c2NC(c2ccccc2)C3)ccc1OCc1ccccc1 (stereo not drawn) 0.0936

So what's the measured growth for this one? OCc1cnccc1NCCCCOc1ccc(Oc2ccccc2)cc1 31.7

So what's the measured growth for this one? O=C(NCCc1ccccc1)Nc1ccc2cc3ccc(NC(=O)NCCc4ccccc4)cc3nc2c1 -30.2

So what's the measured growth for this one? CC1=C(C(=O)/C=C/c2ccc(N(C)C)cc2)C(c2ccccc2)NC(=S)N1 (stereo not drawn) 96.8

So what's the measured growth for this one? N#Cc1c(NC(=O)NCc2ccccc2)sc2c1CCCCC2 29.5

So what's the measured growth for this one? Cc1ccc(/C=C(/C#N)n2nnc3cccc(F)c32)cc1 9.82

So what's the measured growth for this one? CN1CCN(C(=O)[C@]23CCC(C)(C)C[C@H]2C2=CC[C@@H]4[C@@]5(C)C/C(=C/c6ccncc6)C(=O)C(C)(C)[C@@H]5CC[C@@]4(C)[C@]2(C)CC3)CC1 7.07

So what's the measured growth for this one? Cc1cc(C(=O)/C=C/c2ccc[nH]2)ccc1-n1ccc(C(F)(F)F)n1 28.4

So what's the measured growth for this one? O=C1Nc2cc(-c3cccc([N+](=O)[O-])c3)ccc2/C1=C/c1ccc[nH]1 11.3

So what's the measured growth for this one? CCCCCOc1ccc(/C=N/Nc2cc(C)nc3ccc(Cl)cc23)cc1 -21.9

So what's the measured growth for this one? Cc1nn(-c2ccccc2)c(Cl)c1/C=C/C(=O)c1ccc(F)cc1 4.28

So what's the measured growth for this one? COc1ccc(/C=N/NC(=O)c2cnn3c2NC(c2ccccc2)C3)cc1OC (stereo not drawn) 32.3

So what's the measured growth for this one? COc1ccc(/C=C/c2nc(Nc3ccc(S(=O)(=O)Nc4nc(C)cc(C)n4)cc3)c3ccccc3n2)cc1 49.5

So what's the measured growth for this one? COc1ccc(C(=O)c2cc(C)c(OC)c(C)c2)c(OC)c1NC(C)=O 29.3

So what's the measured growth for this one? COc1ccc(OC)c(CCn2cncc2-c2c[nH]c3ccccc23)c1 60.1

So what's the measured growth for this one? N#C/C(=C\c1ccc(C(F)(F)F)cc1)c1cc2ccccc2[nH]1 95.7

So what's the measured growth for this one? CCN(CC)CCn1c(=O)c2cc(OC)c(OC)cc2c2ccc3cc4c(cc3c21)OCO4 -14.9

So what's the measured growth for this one? Cn1cc(CC2CC(=O)N(c3ccccc3)C2=O)sc1=NC(=O)c1ccccc1 (stereo not drawn) 96

So what's the measured growth for this one? Cc1ccc(NC(=O)c2cc(-c3nc4ccccc4s3)c(=O)n(NS(=O)(=O)c3ccc(Cl)cc3)c2N)cc1 95

So what's the measured growth for this one? Oc1ccc(OCCOc2ccc(O)cc2)cc1 45.7

So what's the measured growth for this one? N#Cc1cc(-c2nc3ccccc3s2)c(=O)n(NS(=O)(=O)c2ccccc2)c1N 108

So what's the measured growth for this one? O=S(=O)(NCCNc1nccc(-c2c(-c3cccc(O)c3)nc3occn23)n1)c1ccccc1 75.7

So what's the measured growth for this one? COc1ccccc1/C(C)=N/NC(=O)CSc1nc2ccccc2c(=O)n1Cc1ccc(S(N)(=O)=O)cc1 96.1

So what's the measured growth for this one? Nc1c(C(=O)Nc2cccc3cnccc23)sc2nc3c(cc12)C(=O)CCC3 59.5

So what's the measured growth for this one? COC(=O)/C=C1\S/C(=N\NC(=O)c2cc3ccc2/C=C\c2ccc(cc2)/C=C\3)N(Cc2ccccc2)C1=O -14.7

So what's the measured growth for this one? Cc1nc(N)nc(N[C@@H](C)c2nc3cccc(NCc4ccc(C(=O)NO)cc4)c3c(=O)n2-c2ccccc2)n1 33.3

So what's the measured growth for this one? COc1cc(-c2n/c(=C\c3c(O)[nH]c4ccc(Cl)cc34)cc3c2=Nc2ccccc2-3)ccc1F 7.25
